measured_target: T1, BSA-conjugated Aβ heptapeptide LVFFAEC (reading uncertain; also: BSA conjugate);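 further: ELISA of antibody at 10 or 2 µg/ml binding plate-coated BSA–peptide conjugates, detected with HRP anti-human Ig and TMB colour, mock-treated BSA without peptide as negative control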
T1 construct: also called Peptide 17-22
T1 peptide: LVFFAEC([NSMP-BSA])
assay_name: ELISA
Groups on a side chain read outwards from the residue. No end group written: not given here. NSMP = not defined here
Each entry below lists one item and its recorded OD ratio 17-22/BSA value.
parameter_measured: OD ratio 17-22/BSA

binder="MS-Roche #7.9.H3 Fab (Fab, V domains shown, assembled) VH: QVQLVESGGGLVQPGGSLRLSCAASGFTFSSYAMSWVRQAPGKGLEWVSAINYQGNRKYYADSVKGRFTISRDNSKNTLYLQMNSLRAEDTAVYYCARGKGNTHKPYGYVRYFDVWGQGTLVTVSS VL: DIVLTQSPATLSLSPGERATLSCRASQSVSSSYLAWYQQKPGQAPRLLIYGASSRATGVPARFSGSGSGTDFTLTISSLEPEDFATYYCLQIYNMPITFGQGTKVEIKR" parameter_measured="OD ratio 17-22/BSA" test_value=11
binder="MS-Roche #7.2.H3 Fab (Fab, V domains shown) VH: QVQLVESGGGLVQPGGSLRLSCAASGFTFSSYAMSWVRQAPGKGLEWVSAINANGYKTYYADSVKGRFTISRDNSKNTLYLQMNSLRAEDTAVYYCARGKGNTHKPYGYVRYFDVWGQGTLVTVSS VL: DIVLTQSPATLSLSPGERATLSCRASQSVSSSYLAWYQQKPGQAPRLLIYGASSRATGVPARFSGSGSGTDFTLTISSLEPEDFATYYCQQIYSFPHTFGQGTKVEIKR" parameter_measured="OD ratio 17-22/BSA" test_value=17
binder="MS-Roche #7.11.H2 Fab (Fab, V domains shown) VH: QVQLVESGGGLVQPGGSLRLSCAASGFTFSSYAMSWVRQAPGKGLEWVSAINANGYKKYYADSVKGRFTISRDNSKNTLYLQMNSLRAEDTAVYYCARGKGNTHKPYGYVRYFDVWGQGTLVTVSS VL: DIVLTQSPATLSLSPGERATLSCRASQSVSSSYLAWYQQKPGQAPRLLIYGASSRATGVPARFSGSGSGTDFTLTISSLEPEDFATYYCQQVYSPPHTFGQGTKVEIKR" parameter_measured="OD ratio 17-22/BSA" test_value=10
